Method: folding enthalpy; higher = less favourable; fluorescence melt of hairpins on a sequencing array, two-state fit
Reported conditions: sodium 0.088 M
Recorded endpoint: folding enthalpy
The answer should read as a number with its unit following.

Observe how each entry below is paired with its result.
# Record sequence, Recorded endpoint, Observed value
records = [
    ("GCTTCTCGAAAGAGCAGC (((.(((....))).)))", "folding enthalpy", "-24 kcal/mol"),
    ("GATCGCTCAGGCGATC ((((((....))))))", "folding enthalpy", "-36.1 kcal/mol"),
    ("GACCCTGGAAACGGGGTC (((((.(....).)))))", "folding enthalpy", "-40.3 kcal/mol"),
]

Provide reported folding enthalpy for each item, in the same order as listed.
1. GGCGTGGGAAACCGTGCC (((..((....))..)))
2. GCCCGGCGAAAGCCCGGC (((.(((....))).)))
3. GCCTACGGAAACACAGGC ((((..(....)..))))
4. GCCTCGCGAAAGCATGGC (((..((....))..)))

RESULT:
1. -32.1 kcal/mol
2. -17.1 kcal/mol
3. -23.3 kcal/mol
4. -18.4 kcal/mol
